biological target: hGLP-1R (Homo sapiens, UniProt P43220); assay: Functional cAMP activity in the presence of 1% HSA; assay type: cell-based; settings: read-out: cAMP Rel EC50, hGLP-1R
Sequence (P43220 24-463): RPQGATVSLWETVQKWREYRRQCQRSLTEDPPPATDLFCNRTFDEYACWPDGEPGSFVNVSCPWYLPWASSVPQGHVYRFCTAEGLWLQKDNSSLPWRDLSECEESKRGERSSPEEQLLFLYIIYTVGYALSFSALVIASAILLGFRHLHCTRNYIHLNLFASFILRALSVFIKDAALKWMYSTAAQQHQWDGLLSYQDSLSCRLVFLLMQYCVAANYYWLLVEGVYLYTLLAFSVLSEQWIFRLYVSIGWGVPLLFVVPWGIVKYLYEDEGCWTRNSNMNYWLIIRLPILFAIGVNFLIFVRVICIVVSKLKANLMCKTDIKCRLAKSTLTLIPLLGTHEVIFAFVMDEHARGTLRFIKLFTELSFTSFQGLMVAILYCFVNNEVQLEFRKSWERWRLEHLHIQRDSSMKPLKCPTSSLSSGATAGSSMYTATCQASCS
Starred links: 1 amine or outer side, 2 acyl side, 3 side chain; linkers in the order of their positions; H or OH if unused. Non-standard residues stand in square brackets, D forms with d. Groups on a side chain read outwards from the residue. No end group written: not given here. *: point of attachment. C20 diacid = O=C(O)CCCCCCCCCCCCCCCCCCC(=O)*; C18 diacid = O=C(O)CCCCCCCCCCCCCCCCC(=O)*; αMePhe(2-F) = C[C@](N)(Cc1ccccc1F)C(=O)O; γGlu = O=C(O)[C@H](CCC(=O)[*:2])N[*:1]; αMe4Pal = C[C@](N)(Cc1ccncc1)C(=O)O; αMeY = C[C@](N)(Cc1ccc(O)cc1)C(=O)O; 4Pal = N[C@@H](Cc1ccncc1)C(=O)O; αMeL = CC(C)C[C@](C)(N)C(=O)O; αMeS = C[C@](N)(CO)C(=O)O; Orn = NCCC[C@H](N)C(=O)O; AEEA = NCCOCCOCC(=O)O; Aib = CC(C)(N)C(=O)O
// classify(record): look up EC50 in ranges lo (below 200 nM), med (200 nM to below 400 nM), hi (400 nM or more)

Some solved entries appear below for comparison.
Query: Lab log: H-Y[Aib]QGTFTSD[4Pal]S[Orn][αMeL]LDKK([γGlu-γGlu-C18 diacid])AQ[αMe4Pal]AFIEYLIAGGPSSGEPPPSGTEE-NH2 [Example 981] — assign EC50 category
Response: med

Query: Category of H-Y[Aib]QGT[αMePhe(2-F)]TSD[4Pal][αMeS]I[αMeL]LD[Orn]K([AEEA-γGlu-C18 diacid])AA[Aib]EFI[dE][αMeY]LIEGGPSSGAPPPSGTGQ-OH [Example 724] , please.
Response: lo

Query: Please indicate the class for H-Y[Aib]QGTFTSDFSK[αMeL]LDKK([AEEA-AEEA-γGlu-C20 diacid])AQ[Aib]AFIEYLLEGGPSSGAPPPGEG-NH2 [Example 17] based on its EC50.
Response: hi

Query: GET /class?item= H-Y[Aib]QGTFTSD[4Pal]S[Orn][αMeL]LDKK([γGlu-γGlu-C18 diacid])AQ[αMe4Pal]AFIE[αMe4Pal]LIE[Aib]GPSSGEPPPSGSE-NH2 [Example 990]
Response: hi

Query: Given Y[Aib]QGTFTSDYSI[αMeL]LDKQAAK([AEEA-AEEA-γGlu-C20 diacid])QFVEWLLAGGPSSGEPPPGEG-NH2 [Example 320] , name the class its EC50 places it in.
Response: med

Next:
Query: Which of the defined bands does the recorded EC50 of H-Y[Aib]QGTFTSDYS[Orn][αMeL]LDKK([AEEA-γGlu-C18 diacid])AQ[Aib]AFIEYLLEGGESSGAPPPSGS-NH2 [Example 359] sit within?
Response: hi

Query: Kindly identify the class of H-Y[Aib]QGTFTSD[4Pal]SQ[αMeL]LDKK([γGlu-γGlu-C18 diacid])AQ[αMe4Pal]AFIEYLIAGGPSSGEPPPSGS-NH2 [Example 968] .
Response: lo

Query: Just checking, what class would you give H-Y[Aib]QGTFTSD[4Pal]SK[αMeL]LDKK([AEEA-γGlu-C18 diacid])AQ[Aib]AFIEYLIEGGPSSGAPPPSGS-NH2 [Example 908] here?
Response: lo

Query: Band for the recorded EC50 of H-Y[Aib]QGTFTSD[4Pal]SQ[αMeL]LDKK([Glu-Glu-γGlu-C18 diacid])AQ[αMe4Pal]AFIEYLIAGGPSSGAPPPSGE-NH2 [Example 1087] ?
Response: hi

Query: Form: Item = H-Y[Aib]QGTFTSDFSK[αMeL]LDKK([AEEA-γGlu-C20 diacid])AQ[Aib]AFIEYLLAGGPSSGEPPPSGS-NH2 [Example 8] ; Class = ?
Response: hi

Query: Where would Y[Aib]QGTFTSD[4Pal]SQ[αMeL]LDKK([AEEA-γGlu-C18 diacid])AQ[αMe4Pal]AFIEWLIEGGPSSGAPPPSG[4Pal]-NH2 [Example 832] land among the classes by reported EC50?
Response: med

Query: Lab note: sort H-Y[Aib]Q[dA]T[αMePhe(2-F)]TSD[4Pal]SI[αMeL]LD[Orn]K([AEEA-γGlu-C18 diacid])AQ[αMe4Pal]EFI[dE][αMeY]LIEGGPSSGAPPPSGS-NH2 [Example 1206] into the matching EC50 band.
Response: lo

Query: Band for Y[Aib]QGTFTSD[4Pal]SQ[αMeL]LDKK([γGlu-γGlu-C18 diacid])AQ[αMe4Pal]AFIEYLIE[Aib]GPSSGAPPPSGS-NH2 [Example 858] ?
Response: med

Query: Determine which band this substance sits in: H-Y[Aib]QGTFTSD[4Pal]SQ[αMeL]LDKK([γGlu-γGlu-C18 diacid])AQ[αMe4Pal]AFIE[αMe4Pal]LIE[Aib]GPSSGAPPPSGE-NH2 [Example 1120]
Response: lo

Query: Category of H-Y[Aib]QGTFTSD[4Pal]SQ[αMeL]LDKK([AEEA-γGlu-C18 diacid])AQ[αMe4Pal]AFIEYLIE[Aib]GPSSGAPPPSGSEEE-NH2 [Example 898] :
Response: hi

Query: The entry to classify is H-Y[Aib]QGTFTSD[4Pal]SQ[αMeL]LD[Orn]K([AEEA-γGlu-C18 diacid])AQ[αMe4Pal]AFIEYLIA[Aib]GPSSGEPPPSGSEE-NH2 [Example 1095] ; which class holds it?
Response: lo

Query: Classify this substance: H-Y[Aib]QGTFTSDFS[Orn][αMeL]LDKK([AEEA-AEEA-γGlu-C18 diacid])AQ[Aib]AFIEYLLE[dA]GPSSGEPPPSGE-NH2 [Example 117]
Response: hi

Query: Sort into band: H-Y[Aib]QGTFTSD[4Pal]S[Orn][αMeL]LDKK([γGlu-γGlu-C18 diacid])AQ[αMe4Pal]AFIEYLIAGGPSSGEPPPSGTE-NH2 [Example 980]
Response: med

Query: Which EC50 band matches H-Y[Aib]QGT[αMePhe(2-F)]TSD[4Pal][αMeS]I[αMeL]LD[Orn]K([AEEA-γGlu-C18 diacid])AQ[Aib][Orn]FI[dE][αMeY]LIEGGPSSGEPEPSEG-NH2 [Example 481] ?
Response: lo

Query: Tag the class for H-Y[Aib]QGT[αMePhe(2-F)]TSD[4Pal]SI[αMeL]LD[Orn]K([AEEA-γGlu-C18 diacid])AQ[αMe4Pal][Orn]FI[dE][αMeY]LIEGGPSSGDPPPEGTE-NH2 [Example 731]
Response: lo

Query: Note: place this substance into its band. Item: H-Y[Aib]QGT[αMePhe(2-F)]TSD[4Pal][αMeS]ILLD[Orn]K([γGlu-γGlu-C18 diacid])AQ[Aib][Orn]FI[dE][αMeY]LQEGGPSSGEPPPSGAEE-NH2 [Example 575]
Response: lo
